The reported numbers originate from patent US4410546A.

Recorded measurements of LD50 at 504 h, one per entry
- Assay procedure: Acute toxicity test
- Measurement conditions: mouse, in vivo; oral, mice, death in 3 weeks
Assay readout: LD50 at 504 h

>>> print(df.to_string())
                      smiles_str  assay_readout  endpoint_result
0   CCCC[C@H]1CC[C@H](C(=O)O)CC1  LD50 at 504 h     > 2000 mg/kg
1  CCCCC[C@H]1CC[C@H](C(=O)O)CC1  LD50 at 504 h     > 2000 mg/kg
